# ASSAY: Pharmacokinetic study in mice
# Format: in vivo
# REPORTED CONDITIONS: female, ICR, mouse, plasma, intraperitoneal, 10 mg/kg, mice, intraperitoneal 10 mg/kg, 8 h, n = 8; read-out: plasma concentration, mean ± S.D
MEASURED PARAMETER: concentration at 8 h (ng/mL)
Answers are plain numbers, in ng/mL.

The measured concentration at 8 h associated with "C=C[C@]1(C)C[C@@H](OC(=O)CSc2ccccc2N)[C@]2(C)[C@H](C)CC[C@]3(CCC(=O)[C@H]32)[C@@H](C)[C@@H]1O" reads 70

----------
# ASSAY: Pharmacokinetic study in mice
# Format: in vivo
# REPORTED CONDITIONS: female, ICR, mouse, plasma, po, 10 mg/kg, mice, oral 10 mg/kg, 1 h, n = 8; read-out: plasma concentration, mean ± S.D
# Experimental: Pharmacokinetic parameters of amphenmulin were measured according to previous reports with some modifications. Each group consisted of eight female SPF-ICR mice. Amphenmulin (1 mg/mL) was administered intravenously, intraperitoneally, and orally at a dose of 10 mg/kg, respectively. […] The pharmacokinetic parameters of amphenmulin were determined from the mean plasma concentration with noncompartmental analysis in WinNonlin 5.2 software (Pharsight, Mountain View, CA, USA). […]
MEASURED PARAMETER: concentration at 1 h (µg/mL)
Give bare numbers, in µg/mL.

The measured concentration at 1 h associated with "C=C[C@]1(C)C[C@@H](OC(=O)CSc2ccccc2N)[C@]2(C)[C@H](C)CC[C@]3(CCC(=O)[C@H]32)[C@@H](C)[C@@H]1O" reads 0.49
